molecular target: CDK4/Cyclin D3 complex (Homo sapiens, UniProt P11802); construct: made in house; host or cells: insect cells co-infected with baculovirus vectors; test: CDK4/Cyclin D assay; type: biochemical; conditions: 1.0 μM; combinatorial library compounds
Sequence (P11802 whole entry): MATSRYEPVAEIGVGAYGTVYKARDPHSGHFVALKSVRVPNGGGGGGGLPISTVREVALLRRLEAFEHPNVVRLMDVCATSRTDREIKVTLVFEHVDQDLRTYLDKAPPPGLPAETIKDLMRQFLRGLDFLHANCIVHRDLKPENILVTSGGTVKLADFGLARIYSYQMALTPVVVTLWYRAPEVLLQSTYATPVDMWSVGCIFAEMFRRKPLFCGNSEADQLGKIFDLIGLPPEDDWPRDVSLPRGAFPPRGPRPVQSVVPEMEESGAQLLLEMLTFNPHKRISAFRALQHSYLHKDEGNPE
Sequence (P30281 whole entry partner): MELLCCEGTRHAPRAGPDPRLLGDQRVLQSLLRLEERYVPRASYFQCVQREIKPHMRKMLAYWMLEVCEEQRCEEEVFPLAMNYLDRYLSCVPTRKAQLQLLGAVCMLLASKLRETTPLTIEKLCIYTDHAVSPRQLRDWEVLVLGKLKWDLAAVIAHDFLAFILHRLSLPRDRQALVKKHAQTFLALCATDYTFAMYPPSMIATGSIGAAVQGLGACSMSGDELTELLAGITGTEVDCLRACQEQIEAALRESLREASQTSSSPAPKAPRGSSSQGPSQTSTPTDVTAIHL
Property name: inhibition at 1 µM (%)
// return numeric value only (unit: %, not printed)

Lab book: inhibition at 1 µM of CC(C)c1ccc(Nc2nc(N)c(-c3nc(-c4ccc(Cl)c([N+](=O)[O-])c4)cs3)s2)cc1 noted as 71.5

response.value for Nc1nc(Nc2ccc(S(N)(=O)=O)cc2)sc1-c1nc(-c2ccc3c(c2)CCC(=O)N3)cs1 (field: inhibition at 1 µM) = 42.2

Nc1nc(Nc2ccc(S(N)(=O)=O)cc2)sc1-c1nc(-c2csc3ccccc23)cs1 yielded inhibition at 1 µM of 44.1

Consider CN(C)c1ccc(Nc2nc(N)c(-c3nc(-c4ccccc4OC(=O)c4ccccc4)cs3)s2)cc1 . Its measured inhibition at 1 µM is 48.5

The compound listed as CN(C)c1ccc(Nc2nc(N)c(-c3nc(-c4ccc(O)cc4)cs3)s2)cc1 shows inhibition at 1 µM equal to 66.8

The compound identified as CN(C)c1ccc(Nc2nc(N)c(-c3nc(-c4ccc(Cl)c(Cl)c4)cs3)s2)cc1 registered its inhibition at 1 µM at -6.5

The value of inhibition at 1 µM measured for the compound Nc1nc(Nc2ccc(S(N)(=O)=O)cc2)sc1-c1nc(-c2ccc(F)c(F)c2)cs1 turned out to be -5.3
